meta.source: ChEMBL document CHEMBL4118042

In this section, each of the compounds is paired with its reported Activity.
biological target: Peroxisome proliferator-activated receptor gamma coactivator 1-alpha (Homo sapiens) (UniProt Q9UBK2); test: Activation of PGC1alpha transcriptional activity (unknown origin) expressed in HEK293 cells at 20 uM after overnight incubation by luciferase reporter gene assay relative to control; type: cell-based
Sequence (Q9UBK2 whole entry): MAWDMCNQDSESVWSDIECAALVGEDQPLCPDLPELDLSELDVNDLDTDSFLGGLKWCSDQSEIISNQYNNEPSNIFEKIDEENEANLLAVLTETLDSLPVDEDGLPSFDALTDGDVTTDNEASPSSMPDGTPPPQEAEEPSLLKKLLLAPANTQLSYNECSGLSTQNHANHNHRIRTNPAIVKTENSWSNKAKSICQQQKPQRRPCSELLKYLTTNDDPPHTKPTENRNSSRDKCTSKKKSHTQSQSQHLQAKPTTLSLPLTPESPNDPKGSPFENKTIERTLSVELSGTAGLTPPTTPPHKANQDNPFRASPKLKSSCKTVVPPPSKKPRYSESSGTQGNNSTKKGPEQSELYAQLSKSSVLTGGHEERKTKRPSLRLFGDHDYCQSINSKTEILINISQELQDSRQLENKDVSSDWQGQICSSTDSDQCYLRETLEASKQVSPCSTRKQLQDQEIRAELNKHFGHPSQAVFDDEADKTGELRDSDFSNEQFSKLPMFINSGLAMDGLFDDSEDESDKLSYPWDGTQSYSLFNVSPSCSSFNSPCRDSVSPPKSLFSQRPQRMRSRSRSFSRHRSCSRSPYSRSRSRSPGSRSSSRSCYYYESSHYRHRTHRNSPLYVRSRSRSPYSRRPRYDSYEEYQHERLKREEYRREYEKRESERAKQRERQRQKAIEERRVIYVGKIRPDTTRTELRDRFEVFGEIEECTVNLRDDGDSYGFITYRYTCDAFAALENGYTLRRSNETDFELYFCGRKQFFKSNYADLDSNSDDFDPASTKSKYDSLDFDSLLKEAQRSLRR
Number in %, nothing else.

These solved cases illustrate the format of a correct answer.
Query: Tell me the measured Activity of C[C@H](CC[C@@H](O[C@@H]1O[C@H](CO)[C@@H](O)[C@H](O)[C@H]1O[C@@H]1O[C@H](CO)[C@@H](O)[C@H](O)[C@H]1O)C(C)(C)O)[C@H]1CC[C@@]2(C)[C@@H]3CC=C4[C@@H](CC[C@H](O[C@@H]5O[C@H](CO)[C@@H](O)[C@H](O)[C@H]5O)C4(C)C)[C@]3(C)C(=O)C[C@]12C , please.
Response: 123

Query: Tell me the measured Activity of C[C@H](CC[C@@H](O[C@@H]1O[C@H](CO)[C@@H](O)[C@H](O)[C@H]1O[C@@H]1O[C@H](CO)[C@@H](O)[C@H](O)[C@H]1O)C(C)(C)O)[C@H]1CC[C@@]2(C)[C@@H]3C(=O)C=C4[C@@H](CC[C@H](O[C@@H]5O[C@H](CO)[C@@H](O)[C@H](O)[C@H]5O)C4(C)C)[C@]3(C)[C@H](O)C[C@]12C , please.
Response: 122

Query: Tell me the measured Activity of C[C@H](CC[C@@H](O[C@@H]1O[C@H](CO)[C@@H](O)[C@H](O)[C@H]1O[C@@H]1O[C@H](CO)[C@@H](O)[C@H](O)[C@H]1O)C(C)(C)O)[C@H]1CC[C@@]2(C)[C@@H]3CC=C4[C@@H](CC[C@H](O[C@@H]5O[C@H](CO[C@@H]6O[C@H](CO)[C@@H](O)[C@H](O)[C@H]6O)[C@@H](O)[C@H](O)[C@H]5O)C4(C)C)[C@]3(C)C(=O)C[C@]12C , please.
Response: 132

Turning now to a further compound:
Query: Tell me the measured Activity of C[C@H](CC[C@@H](O[C@@H]1O[C@H](CO)[C@@H](O)[C@H](O)[C@H]1O[C@@H]1O[C@H](CO)[C@@H](O)[C@H](O)[C@H]1O)C(C)(C)O)[C@H]1CC[C@@]2(C)[C@@H]3C(=O)C=C4[C@@H](CC[C@H](O[C@@H]5O[C@H](CO[C@@H]6O[C@H](CO)[C@@H](O)[C@H](O)[C@H]6O)[C@@H](O)[C@H](O)[C@H]5O)C4(C)C)[C@]3(C)[C@H](O)C[C@]12C , please.
Response: 126

---

In this section, each of the compounds is paired with its reported Activity.
molecular target: Peroxisome proliferator-activated receptor gamma coactivator 1-alpha (Homo sapiens); assay: Activation of PGC1alpha transcriptional activity (unknown origin) expressed in HEK293 cells at 10 uM after overnight incubation by luciferase reporter gene assay relative to control; type: cell-based
Number in %, nothing else.

These solved cases illustrate the format of a correct answer.
Query: Tell me the measured Activity of C[C@H](CC[C@@H](O[C@@H]1O[C@H](CO)[C@@H](O)[C@H](O)[C@H]1O[C@@H]1O[C@H](CO)[C@@H](O)[C@H](O)[C@H]1O)C(C)(C)O)[C@H]1CC[C@@]2(C)[C@@H]3C(=O)C=C4[C@@H](CC[C@H](O[C@@H]5O[C@H](CO[C@@H]6O[C@H](CO)[C@@H](O)[C@H](O)[C@H]6O)[C@@H](O)[C@H](O)[C@H]5O)C4(C)C)[C@]3(C)[C@H](O)C[C@]12C , please.
Response: 105

Query: Tell me the measured Activity of C[C@H](CC[C@@H](O[C@@H]1O[C@H](CO)[C@@H](O)[C@H](O)[C@H]1O[C@@H]1O[C@H](CO)[C@@H](O)[C@H](O)[C@H]1O)C(C)(C)O)[C@H]1CC[C@@]2(C)[C@@H]3CC=C4[C@@H](CC[C@H](O[C@@H]5O[C@H](CO[C@@H]6O[C@H](CO)[C@@H](O)[C@H](O)[C@H]6O)[C@@H](O)[C@H](O)[C@H]5O)C4(C)C)[C@]3(C)C(=O)C[C@]12C , please.
Response: 129

Query: Tell me the measured Activity of C[C@H](CC[C@@H](O[C@@H]1O[C@H](CO)[C@@H](O)[C@H](O)[C@H]1O[C@@H]1O[C@H](CO)[C@@H](O)[C@H](O)[C@H]1O)C(C)(C)O)[C@H]1CC[C@@]2(C)[C@@H]3C(=O)C=C4[C@@H](CC[C@H](O[C@@H]5O[C@H](CO)[C@@H](O)[C@H](O)[C@H]5O)C4(C)C)[C@]3(C)[C@H](O)C[C@]12C , please.
Response: 97.8

Turning now to a further compound:
Query: Tell me the measured Activity of C[C@H](CC[C@@H](O[C@@H]1O[C@H](CO)[C@@H](O)[C@H](O)[C@H]1O[C@@H]1O[C@H](CO)[C@@H](O)[C@H](O)[C@H]1O)C(C)(C)O)[C@H]1CC[C@@]2(C)[C@@H]3CC=C4[C@@H](CC[C@H](O[C@@H]5O[C@H](CO)[C@@H](O)[C@H](O)[C@H]5O)C4(C)C)[C@]3(C)C(=O)C[C@]12C , please.
Response: 107
